Test: Solubility of Amphotericin B in water
Format: physicochemical
Details: water; pH 6-7, the pH value of the emulsion; read-out: solubility in water
Description: Thus the solubility of Amphotericin B in water is less than 0.001% (<0.01 mg/ml) at pH 6-7, i.e. the pH value of the emulsion. It is true that the solubility of Amphotericin is higher with pH 2 and pH 11 (0.1 mg/ml), however these solutions cannot be administered intravenously. […]
Reported endpoint: solubility

For the compound shown here, C[C@@H]1[C@H](O)[C@@H](C)/C=C/C=C/C=C/C=C/C=C/C=C/C=C/[C@H](O[C@@H]2O[C@H](C)[C@@H](O)[C@H](N)[C@@H]2O)C[C@@H]2O[C@](O)(C[C@@H](O)C[C@@H](O)[C@H](O)CC[C@@H](O)C[C@@H](O)CC(=O)O[C@H]1C)C[C@H](O)[C@H]2C(=O)O , give the reported solubility.
< 10 µg/mL

====

Experiment: Solubility of Amphotericin B in water
Format: physicochemical
Settings: water, pH 2, aqueous buffer; read-out: solubility
Protocol: Thus the solubility of Amphotericin B in water is less than 0.001% (<0.01 mg/ml) at pH 6-7, i.e. the pH value of the emulsion. It is true that the solubility of Amphotericin is higher with pH 2 and pH 11 (0.1 mg/ml), however these solutions cannot be administered intravenously. […]
Reported endpoint: solubility (µg/mL)
Write the number in µg/mL without appending the unit.

State the recorded solubility for this entry: C[C@@H]1[C@H](O)[C@@H](C)/C=C/C=C/C=C/C=C/C=C/C=C/C=C/[C@H](O[C@@H]2O[C@H](C)[C@@H](O)[C@H](N)[C@@H]2O)C[C@@H]2O[C@](O)(C[C@@H](O)C[C@@H](O)[C@H](O)CC[C@@H](O)C[C@@H](O)CC(=O)O[C@H]1C)C[C@H](O)[C@H]2C(=O)O
100

====

Assay: Solubility of Amphotericin B in water
Format: physicochemical
Settings: water, pH 11, aqueous buffer; read-out: solubility
Method: Thus the solubility of Amphotericin B in water is less than 0.001% (<0.01 mg/ml) at pH 6-7, i.e. the pH value of the emulsion. It is true that the solubility of Amphotericin is higher with pH 2 and pH 11 (0.1 mg/ml), however these solutions cannot be administered intravenously. […]
Reported endpoint: solubility (µg/mL)
Express your answer in µg/mL, writing the number without its unit.

What does the data say about its solubility? Entry: C[C@@H]1[C@H](O)[C@@H](C)/C=C/C=C/C=C/C=C/C=C/C=C/C=C/[C@H](O[C@@H]2O[C@H](C)[C@@H](O)[C@H](N)[C@@H]2O)C[C@@H]2O[C@](O)(C[C@@H](O)C[C@@H](O)[C@H](O)CC[C@@H](O)C[C@@H](O)CC(=O)O[C@H]1C)C[C@H](O)[C@H]2C(=O)O [Amphotericin B]
100

====

Assay: Solubility of Amphotericin in standard oils (soya oil, Miglyol 812)
Format: physicochemical
Conditions: soya oil (long-chain triglycerides, LCT), oil or lipid; read-out: solubility in soya oil (Long-chain Triglycerides, LCT)
Reported endpoint: solubility

What value of solubility has been recorded for this entry: C[C@@H]1[C@H](O)[C@@H](C)/C=C/C=C/C=C/C=C/C=C/C=C/C=C/[C@H](O[C@@H]2O[C@H](C)[C@@H](O)[C@H](N)[C@@H]2O)C[C@@H]2O[C@](O)(C[C@@H](O)C[C@@H](O)[C@H](O)CC[C@@H](O)C[C@@H](O)CC(=O)O[C@H]1C)C[C@H](O)[C@H]2C(=O)O [Amphotericin B]
< 0.1 µg/mL

====

Test: Additive solubility in oil and water phase versus quantity dissolved in the emulsion
Assay type: physicochemical
Conditions: 20 °C, oil or lipid, per ml emulsion, calculated from the separate solubilities
Reported endpoint: solubility

May I ask what solubility has been recorded for C[C@@H]1[C@H](O)[C@@H](C)/C=C/C=C/C=C/C=C/C=C/C=C/C=C/[C@H](O[C@@H]2O[C@H](C)[C@@H](O)[C@H](N)[C@@H]2O)C[C@@H]2O[C@](O)(C[C@@H](O)C[C@@H](O)[C@H](O)CC[C@@H](O)C[C@@H](O)CC(=O)O[C@H]1C)C[C@H](O)[C@H]2C(=O)O ?
~8 µg/mL
